Overview of recorded Related substance for various molecules
# assay.summary: Stability experiments under 25° C.±2° C. and 65% R.H±5% R.H
# experimental.parameters: month 6; 25° C./65% R.H

Sample answers from the record:
>>> result_value("CCC(C(C)OP(=O)([O-])[O-])n1ncn(-c2ccc(N3CCN(c4ccc(OCC5COC(Cn6cncn6)(c6ccc(F)cc6F)C5)cc4)CC3)cc2)c1=O.C[N+](C)(C)CCO.C[N+](C)(C)CCO.O.O.O.O.O (stereo not shown)")
"0.19%"
>>> result_value("CC[C@@H]([C@H](C)OP(=O)([O-])[O-])n1ncn(-c2ccc(N3CCN(c4ccc(OC[C@@H]5CO[C@@](Cn6cncn6)(c6ccc(F)cc6F)C5)cc4)CC3)cc2)c1=O.C[N+](C)(C)CCO.C[N+](C)(C)CCO [Comparative Example 1, Posaconazole Phosphate Bicholinate]")
"0.19%"
>>> result_value("CC[C@@H]([C@H](C)OP(=O)(O)O)n1ncn(-c2ccc(N3CCN(c4ccc(OC[C@@H]5CO[C@@](Cn6cncn6)(c6ccc(F)cc6F)C5)cc4)CC3)cc2)c1=O [Example 3]")
"0.13%"
>>> result_value("CC[C@@H]([C@H](C)OP(=O)(O)O)n1ncn(-c2ccc(N3CCN(c4ccc(OC[C@@H]5CO[C@@](Cn6cncn6)(c6ccc(F)cc6F)C5)cc4)CC3)cc2)c1=O [Example 1, Posaconazole Phosphate Monocholinate]")
"0.13%"
>>> result_value("CC[C@@H]([C@H](C)OP(=O)(O)O)n1ncn(-c2ccc(N3CCN(c4ccc(OC[C@@H]5CO[C@@](Cn6cncn6)(c6ccc(F)cc6F)C5)cc4)CC3)cc2)c1=O.N=C(N)NCCC[C@H](N)C(=O)O [Comparative Example 5, Posaconazole Phosphate Monoarginine Salt]")
"0.29%"
>>> result_value("CC[C@@H]([C@H](C)OP(=O)([O-])[O-])n1ncn(-c2ccc(N3CCN(c4ccc(OC[C@@H]5CO[C@@](Cn6cncn6)(c6ccc(F)cc6F)C5)cc4)CC3)cc2)c1=O.O.O.O.O.O.[Na+].[Na+]")
"0.32%"

Look up Related substance for this molecule: `CC[C@@H]([C@H](C)OP(=O)(O)O)n1ncn(-c2ccc(N3CCN(c4ccc(OC[C@@H]5CO[C@@](Cn6cncn6)(c6ccc(F)cc6F)C5)cc4)CC3)cc2)c1=O.CNC[C@H](O)[C@@H](O)[C@H](O)[C@H](O)CO`
0.31%

* * *

# assay.summary: Stability experiments under 40° C.±2° C. and 75% R.H±5% R.H (accelerated test)
# Assay type: physicochemical
# experimental.parameters: month 6; 40° C./75% R.H
measured.endpoint: Content (%)
Provide the reading as a plain figure in %.

Sample answers from the record:
>>> result_value("CC[C@@H]([C@H](C)OP(=O)(O)O)n1ncn(-c2ccc(N3CCN(c4ccc(OC[C@@H]5CO[C@@](Cn6cncn6)(c6ccc(F)cc6F)C5)cc4)CC3)cc2)c1=O.CNC[C@H](O)[C@@H](O)[C@H](O)[C@H](O)CO")
99.36
>>> result_value("CC[C@@H]([C@H](C)OP(=O)([O-])[O-])n1ncn(-c2ccc(N3CCN(c4ccc(OC[C@@H]5CO[C@@](Cn6cncn6)(c6ccc(F)cc6F)C5)cc4)CC3)cc2)c1=O.O.O.O.O.O.[Na+].[Na+]")
99.32

Continue with the compound presented below.
Look up Content for this compound: CC[C@@H]([C@H](C)OP(=O)([O-])[O-])n1ncn(-c2ccc(N3CCN(c4ccc(OC[C@@H]5CO[C@@](Cn6cncn6)(c6ccc(F)cc6F)C5)cc4)CC3)cc2)c1=O.C[N+](C)(C)CCO.C[N+](C)(C)CCO [Comparative Example 1, Posaconazole Phosphate Bicholinate]
99.65
